Biological target: recombinant human DHODH (Homo sapiens)
Construct: DHODH, 31-395 aa, Human, His tag, E. coli, ATGP1615; His tag
Sequence (Q02127 31-395): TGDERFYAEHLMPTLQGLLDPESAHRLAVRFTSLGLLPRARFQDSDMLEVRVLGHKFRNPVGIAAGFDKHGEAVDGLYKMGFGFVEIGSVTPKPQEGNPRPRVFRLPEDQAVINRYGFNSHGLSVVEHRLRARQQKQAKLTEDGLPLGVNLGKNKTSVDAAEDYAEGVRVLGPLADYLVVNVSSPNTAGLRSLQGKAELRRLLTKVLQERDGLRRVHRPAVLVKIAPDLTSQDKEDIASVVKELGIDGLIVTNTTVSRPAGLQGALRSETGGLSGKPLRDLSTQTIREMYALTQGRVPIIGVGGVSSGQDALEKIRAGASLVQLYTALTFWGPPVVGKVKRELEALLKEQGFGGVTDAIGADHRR
Experiment: Enzyme reaction inhibition test (DHODH enzyme assay, DCIP quenching)
Conditions: DCIP absorbance 600 nm, 50 minutes, read-out: Enzyme reaction inhibitory effect (IC50)
Experimental: The DHODH enzyme assay was carried out with reference to “Benjamin Bader, Wolfgang Knecht, Markus Fries, and Monika Loffler. Expression, Purification, and Characterization of Histidine-Tagged Rat and Human Flavoenzyme Dihydroorotate Dehydrogenase. […] The DHODH activity was evaluated using an enzyme assay system that is coupled with an assay in which a blue coloring agent 2,6-dichlorophenol indophenol (DCIP, available from MP Biomedicals, LLC, MP150118) is quenched. […]
MEASURE NAME: IC50

>  <QUERY SMILES>
CCCCc1c(Nc2ncc(C3CC3)nc2C(=O)O)cccc1C1CCOCC1

>  <TARGET OF ASSAY>
recombinant human DHODH (Homo sapiens)

>  <RESULT>
< 10 nM

$$$$
>  <QUERY SMILES>
CCOc1c(Nc2ncc(C3CC3)nc2C(=O)O)cccc1C1=CCOCC1

>  <TARGET OF ASSAY>
recombinant human DHODH (Homo sapiens)

>  <RESULT>
10 to 100 nM

$$$$
>  <QUERY SMILES>
CC(C)OC(=O)c1nc(C2CC2)cnc1Nc1cccc(C2=CCOCC2)c1OCC(F)(F)F

>  <TARGET OF ASSAY>
recombinant human DHODH (Homo sapiens)

>  <RESULT>
≥ 100 nM

$$$$
>  <QUERY SMILES>
CCc1c(Nc2ncc(C3CC3)nc2C(=O)O)cccc1C1CCOCC1

>  <TARGET OF ASSAY>
recombinant human DHODH (Homo sapiens)

>  <RESULT>
< 10 nM

$$$$
>  <QUERY SMILES>
O=C(O)c1nc(C2CC2)cnc1Nc1cccc(C2CCOCC2)c1CCC(F)(F)F

>  <TARGET OF ASSAY>
recombinant human DHODH (Homo sapiens)

>  <RESULT>
< 10 nM

$$$$
>  <QUERY SMILES>
O=C(O)c1nc(C2CC2)cnc1Nc1cccc(C2CCOCC2)c1CCC(F)F

>  <TARGET OF ASSAY>
recombinant human DHODH (Homo sapiens)

>  <RESULT>
< 10 nM

$$$$
>  <QUERY SMILES>
O=C(O)c1nc(C2CC2)cnc1Nc1ccc(F)c(C2=CCOCC2)c1F

>  <TARGET OF ASSAY>
recombinant human DHODH (Homo sapiens)

>  <RESULT>
10 to 100 nM

$$$$
